System: reserpine-induced ptosis
Procedure Text: Effect on reserpine-induced ptosis in the mouse
Type: in vivo, mouse (male ddY)
Condition Description: 30 mg/kg oral; reserpine 2 mg/kg s.c.
Where a name gives a salt, the structure may show the parent alone.
Readout Kind: Score (antagonism against reserpine-induced ptosis)

Example results:
Compound	Endpoint Value
O=c1cc(-c2ccc(Cl)cc2)on1C[C@@H](O)CN1CCOCC1	+ (71% or more)
OC(COc1noc(-c2ccccc2)c1Cl)CN1CCOCC1 (centres unmarked)	± (41% to 70%)
CN(C)CCCN1c2ccccc2CCc2ccccc21 [Imipramine.HCl, reference compound]	± (41% to 70%)
O=c1cc(-c2ccc(Cl)cc2)on1CC(O)CN1CCOCC1 (centres unmarked)	+ (71% or more)

Tell me Score (antagonism against reserpine-induced ptosis) of NC(=O)OCC(O)Cn1oc2ccc(Cl)cc2c1=O (centres unmarked) when tested on reserpine-induced ptosis.
+ (71% or more)
